Value source: paper PMC2094211

Target: T1, FPR W190/N192 (Homo sapiens, UniProt P21462)
T1 chain: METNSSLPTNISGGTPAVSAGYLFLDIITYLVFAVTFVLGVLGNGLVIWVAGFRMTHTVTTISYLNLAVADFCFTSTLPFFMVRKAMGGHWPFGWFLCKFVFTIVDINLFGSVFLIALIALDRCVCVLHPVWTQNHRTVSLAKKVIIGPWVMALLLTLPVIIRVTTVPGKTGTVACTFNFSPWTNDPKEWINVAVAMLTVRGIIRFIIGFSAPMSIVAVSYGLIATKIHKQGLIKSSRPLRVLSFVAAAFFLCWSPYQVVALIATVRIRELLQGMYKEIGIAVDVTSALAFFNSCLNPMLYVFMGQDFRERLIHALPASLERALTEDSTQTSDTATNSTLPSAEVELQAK
Assay: FACS competition with formyl-Nle-Leu-Phe-Nle-Tyr-Lys-FITC
Square brackets hold non-standard residues; d marks the D form. Ends that are not written are not given here. * marks the point of attachment. Nle = CCCC[C@H](N)C(=O)O; For = O=C*
TEST READOUT: pKi
Please note pKi is a logarithmic value: minus log10 of concentration in mol/L. Answer with that number alone.

Value of measured pKi for the entry For-[Nle][Nle]WEDWVGWI [formyl-NleNleWEDWVGWI] : 6.00
